assay: Lipophilicity, logP of compound; assay type: physicochemical; details: octanol/water

{"SMILES_STRUCTURE": "CN(C)c1ncc(/C=C/c2nc3cc(OCC[18F])ccc3[se]2)cn1", "logP": 1.28}
{"SMILES_STRUCTURE": "CCOC(=O)CN1C(=O)/C(=C/c2ccc3c(c2)Sc2ccccc2N3C)SC1=S", "logP": 3.68}
{"SMILES_STRUCTURE": "CN(C)c1ccc2cc(/C=C/C=C/C=C(C#N)C#N)ccc2c1", "logP": 4.48}
{"SMILES_STRUCTURE": "CCN(CC)c1ccc(/C=C/C2=CC(/C=C/c3ccc(N(C)C)cc3)=[O+][B-](F)(F)O2)cn1", "logP": 1.94}
{"SMILES_STRUCTURE": "CN(C)c1ccc2cc(/C=C/C=C(C#N)C#N)ccc2c1", "logP": 4.1}
{"SMILES_STRUCTURE": "CCOC(=O)CN1C(=O)S/C(=C\\C=C\\c2ccc3c(c2)Sc2ccccc2N3C)C1=O", "logP": 3.6}
